Hi there, I'd appreciate the recorded half-life for every entry that follows.
Experiment: Half life in Beagle dog at 1 mg/kg, iv administered as infusion for 15 mins by LC/MS-MS analysis
Format: ADME, organism-based, Canis lupus familiaris
Details: in vivo
// return the numeric value with its unit appended

Exercise: Look up half-life: `Cc1ccc(-c2cc(C(F)(F)F)ccc2[C@H]2CCOc3cc(S(=O)(=O)Nc4ncccn4)ccc32)cn1`
Solution: 2.5 h

Exercise: Look up half-life: `O=S(=O)(Nc1ncccn1)c1ccc2c(c1)OCC[C@@H]2c1ccc(C(F)(F)F)cc1-c1ccc(F)nc1`
Solution: 24 h

Exercise: Look up half-life: `O=S(=O)(Nc1ncccn1)c1ccc2c(c1)OCC[C@@H]2c1ccc(C(F)(F)F)cc1N1CCOCC1`
Solution: 11 h

Exercise: Look up half-life: `Cn1nccc1-c1cc(C(F)(F)F)ccc1[C@H]1CCOc2cc(S(=O)(=O)Nc3ncccn3)ccc21`
Solution: 7.8 h

###

Assay: Cmax in BALB/c mouse at 10 mg/kg, po measured upto 24 hrs by LC/MS-MS analysis
Assay type: ADME, organism-based
Design: dose 10 mg/kg, route oral
Details: in vivo
Hi there, I'd appreciate the recorded Cmax for every entry that follows.
The reply should contain only the number, in µM.

Exercise: Look up Cmax: `Cn1nccc1-c1cc(C(F)(F)F)ccc1[C@H]1CCc2cc(S(=O)(=O)Nc3ncccn3)ccc21`
Solution: 18

Exercise: Look up Cmax: `Cn1nccc1-c1cc(C(F)(F)F)ccc1[C@H]1CCOc2cc(S(=O)(=O)Nc3ncccn3)ccc21`
Solution: 15

Exercise: Look up Cmax: `O=S(=O)(Nc1nccs1)c1ccc2c(c1)OCC[C@@H]2c1ccc(C(F)(F)F)cc1-c1ccc(F)nc1`
Solution: 4.2

Exercise: Look up Cmax: `Cn1nccc1-c1cc(C(F)(F)F)ccc1[C@H]1CCOc2cc(S(=O)(=O)Nc3nccs3)ccc21`
Solution: 6

Exercise: Look up Cmax: `O=S(=O)(Nc1ncccn1)c1ccc2c(c1)OCC[C@@H]2c1ccc(C(F)(F)F)cc1-c1ccc(F)nc1`
Solution: 17

Exercise: Look up Cmax: `O=S(=O)(Nc1ncccn1)c1ccc2c(c1)OCC[C@@H]2c1ccc(C(F)(F)F)cc1N1CCOCC1`
Solution: 9.6

Exercise: Look up Cmax: `O=S(=O)(Nc1nccs1)c1ccc2c(c1)OCC[C@@H]2c1ccc(C(F)(F)F)cc1-n1ccnn1`
Solution: 3

Exercise: Look up Cmax: `Cc1ccc(-c2cc(C(F)(F)F)ccc2[C@H]2CCOc3cc(S(=O)(=O)Nc4ncccn4)ccc32)cn1`
Solution: 18

###

Hi there, I'd appreciate the recorded Drug metabolism for every entry that follows.
Assay: Metabolic stability in mouse liver microsomes assessed as metabolic rate at 1 uM preincubated for 5 mins followed by NADPH addition and measured up to 30 mins by LC/MS-MS analysis
Type: ADME, Microsome
Settings: 0.5 h
The reply should contain only the number, in nmol/min/mg.

Exercise: Look up Drug metabolism: `O=S(=O)(Nc1nccs1)c1ccc2c(c1)OCC[C@@H]2c1ccc(C(F)(F)F)cc1-c1ccc(F)nc1`
Solution: 0.04

Exercise: Look up Drug metabolism: `Cn1nccc1-c1cc(C(F)(F)F)ccc1[C@H]1CCOc2cc(S(=O)(=O)Nc3ncccn3)ccc21`
Solution: 0

Exercise: Look up Drug metabolism: `O=S(=O)(Nc1ncccn1)c1ccc2c(c1)OCC[C@@H]2c1ccc(C(F)(F)F)cc1-c1ccc(F)nc1`
Solution: 0

Exercise: Look up Drug metabolism: `O=S(=O)(Nc1ncccn1)c1ccc2c(c1)OCC[C@@H]2c1ccc(C(F)(F)F)cc1N1CCOCC1`
Solution: 0.16

###

Assay: Metabolic stability in dog liver microsomes assessed as metabolic rate at 1 uM preincubated for 5 mins followed by NADPH addition and measured up to 30 mins by LC/MS-MS analysis
Assay type: ADME, Canis lupus familiaris, Microsome
Settings: 0.5 h
Hi there, I'd appreciate the recorded Drug metabolism for every entry that follows.
The reply should contain only the number, in nmol/min/mg.

Exercise: Look up Drug metabolism: `O=S(=O)(Nc1ncccn1)c1ccc2c(c1)OCC[C@@H]2c1ccc(C(F)(F)F)cc1N1CCOCC1`
Solution: 0.02

Exercise: Look up Drug metabolism: `Cc1ccc(-c2cc(C(F)(F)F)ccc2[C@H]2CCOc3cc(S(=O)(=O)Nc4ncccn4)ccc32)cn1`
Solution: 0.02

Exercise: Look up Drug metabolism: `Cn1nccc1-c1cc(C(F)(F)F)ccc1[C@H]1CCOc2cc(S(=O)(=O)Nc3ncccn3)ccc21`
Solution: 0.01

Exercise: Look up Drug metabolism: `O=S(=O)(Nc1ncccn1)c1ccc2c(c1)OCC[C@@H]2c1ccc(C(F)(F)F)cc1-c1ccc(F)nc1`
Solution: 0.03

Exercise: Look up Drug metabolism: `Cn1nccc1-c1cc(C(F)(F)F)ccc1[C@H]1CCc2cc(S(=O)(=O)Nc3ncccn3)ccc21`
Solution: 0.02

###

Hi there, I'd appreciate the recorded Vd for every entry that follows.
Experiment: Volume of distribution at steady state in Beagle dog at 1 mg/kg, iv administered as infusion for 15 mins by LC/MS-MS analysis
Format: ADME, organism-based, Canis lupus familiaris
Conditions: in vivo, read-out: Vdss
The reply should contain only the number, in L/kg.

Exercise: Look up Vd: `O=S(=O)(Nc1ncccn1)c1ccc2c(c1)OCC[C@@H]2c1ccc(C(F)(F)F)cc1-c1ccc(F)nc1`
Solution: 0.5

Exercise: Look up Vd: `O=S(=O)(Nc1ncccn1)c1ccc2c(c1)OCC[C@@H]2c1ccc(C(F)(F)F)cc1N1CCOCC1`
Solution: 0.5

Exercise: Look up Vd: `Cc1ccc(-c2cc(C(F)(F)F)ccc2[C@H]2CCOc3cc(S(=O)(=O)Nc4ncccn4)ccc32)cn1`
Solution: 0.4

Exercise: Look up Vd: `Cn1nccc1-c1cc(C(F)(F)F)ccc1[C@H]1CCOc2cc(S(=O)(=O)Nc3ncccn3)ccc21`
Solution: 0.3

###

Test: Apparent permeability across basolateral to apical side in human Caco2 cells
Type: ADME, cell-based
Conditions: Caco-2
Hi there, I'd appreciate the recorded Papp B→A for every entry that follows.
The reply should contain only the number, in nm/s.

Exercise: Look up Papp B→A: `O=S(=O)(Nc1ncccn1)c1ccc2c(c1)OCC[C@@H]2c1ccc(C(F)(F)F)cc1N1CCOCC1`
Solution: 254

Exercise: Look up Papp B→A: `Cn1nccc1-c1cc(C(F)(F)F)ccc1[C@H]1CCOc2cc(S(=O)(=O)Nc3ncccn3)ccc21`
Solution: 268

Exercise: Look up Papp B→A: `Cn1nccc1-c1cc(C(F)(F)F)ccc1[C@H]1CCc2cc(S(=O)(=O)Nc3ncccn3)ccc21`
Solution: 367

Exercise: Look up Papp B→A: `Cc1ccc(-c2cc(C(F)(F)F)ccc2[C@H]2CCOc3cc(S(=O)(=O)Nc4ncccn4)ccc32)cn1`
Solution: 368

###

Assay: Cmax in BALB/c mouse at 1 mg/kg, iv measured upto 24 hrs by LC/MS-MS analysis
Assay type: ADME, organism-based
Set-up: dose 1 mg/kg, route intravenous
Details: in vivo
We label by threshold. Values of Cmax strictly beneath 2000 nM are 1. Values of 2000 nM and up are -1.

Exercise: Here's an entry: `O=S(=O)(Nc1nccs1)c1ccc2c(c1)OCC[C@@H]2c1ccc(C(F)(F)F)cc1-n1ccnn1` . Is its Cmax below 2000 nM?
Solution: -1

Exercise: Here's an entry: `Cc1ccc(-c2cc(C(F)(F)F)ccc2[C@H]2CCOc3cc(S(=O)(=O)Nc4ncccn4)ccc32)cn1` . Is its Cmax below 2000 nM?
Solution: -1

Exercise: Here's an entry: `O=S(=O)(Nc1nccs1)c1ccc2c(c1)OCC[C@@H]2c1ccc(C(F)(F)F)cc1-c1ccc(F)nc1` . Is its Cmax below 2000 nM?
Solution: 1

Exercise: Here's an entry: `Cn1nccc1-c1cc(C(F)(F)F)ccc1[C@H]1CCOc2cc(S(=O)(=O)Nc3nccs3)ccc21` . Is its Cmax below 2000 nM?
Solution: 1

###

Hi there, I'd appreciate the recorded Papp A→B for every entry that follows.
Experiment: Apparent permeability across apical to basolateral side in human Caco2 cells
Format: ADME, cell-based
Settings: Caco-2
The reply should contain only the number, in ×10⁻⁶ cm/s.

Exercise: Look up Papp A→B: `Cc1ccc(-c2cc(C(F)(F)F)ccc2[C@H]2CCOc3cc(S(=O)(=O)Nc4ncccn4)ccc32)cn1`
Solution: 39.5

Exercise: Look up Papp A→B: `Cn1nccc1-c1cc(C(F)(F)F)ccc1[C@H]1CCOc2cc(S(=O)(=O)Nc3ncccn3)ccc21`
Solution: 28

Exercise: Look up Papp A→B: `Cn1nccc1-c1cc(C(F)(F)F)ccc1[C@H]1CCc2cc(S(=O)(=O)Nc3ncccn3)ccc21`
Solution: 31.5

Exercise: Look up Papp A→B: `O=S(=O)(Nc1ncccn1)c1ccc2c(c1)OCC[C@@H]2c1ccc(C(F)(F)F)cc1N1CCOCC1`
Solution: 37.6

###

Experiment: Cmax in Sprague-Dawley rat at 1 mg/kg, iv measured upto 24 hrs by LC/MS-MS analysis
Type: ADME, organism-based
Set-up: dose 1 mg/kg, route intravenous
Details: in vivo
quantity kind: Cmax (nM)
The reply should contain only the number, in nM.

Exercise: Look up Cmax: `O=S(=O)(Nc1ncccn1)c1ccc2c(c1)OCC[C@@H]2c1ccc(C(F)(F)F)cc1-c1ccc(F)nc1`
Solution: 1700

Exercise: Look up Cmax: `O=S(=O)(Nc1ncccn1)c1ccc2c(c1)OCC[C@@H]2c1ccc(C(F)(F)F)cc1N1CCOCC1`
Solution: 2100

Exercise: Look up Cmax: `Cn1nccc1-c1cc(C(F)(F)F)ccc1[C@H]1CCOc2cc(S(=O)(=O)Nc3ncccn3)ccc21`
Solution: 2200

Exercise: Look up Cmax: `Cn1nccc1-c1cc(C(F)(F)F)ccc1[C@H]1CCc2cc(S(=O)(=O)Nc3ncccn3)ccc21`
Solution: 2500

Exercise: Look up Cmax: `Cc1ccc(-c2cc(C(F)(F)F)ccc2[C@H]2CCOc3cc(S(=O)(=O)Nc4ncccn4)ccc32)cn1`
Solution: 2600
